Assay: self-splicing fitness, log relative to wild type (ln ratio); higher = more splicing; Tetrahymena group I intron in knt gene, E. coli kanamycin selection, DiMSum; sequences stand for … in CUCUCU…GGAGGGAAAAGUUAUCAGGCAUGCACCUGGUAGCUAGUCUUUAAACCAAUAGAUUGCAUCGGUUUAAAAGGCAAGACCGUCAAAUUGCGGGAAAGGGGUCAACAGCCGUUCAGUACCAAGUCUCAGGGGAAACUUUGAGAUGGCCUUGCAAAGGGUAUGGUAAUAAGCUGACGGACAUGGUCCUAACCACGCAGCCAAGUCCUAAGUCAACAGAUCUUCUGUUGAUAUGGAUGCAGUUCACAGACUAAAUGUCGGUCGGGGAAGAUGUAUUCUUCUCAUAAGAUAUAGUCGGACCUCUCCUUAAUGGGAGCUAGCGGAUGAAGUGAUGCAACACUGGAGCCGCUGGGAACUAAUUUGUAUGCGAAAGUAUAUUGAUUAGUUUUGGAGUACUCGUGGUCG;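 note: selection with 25 µg/mL kanamycin versus none on LB agar overnight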
Settings: 37 °C
The threshold is inclusive: self-splicing fitness (ln) of exactly -2 counts as 1 (yes); values below receive 0 (no).

ordered_residues=UCUUAGCAAUAUUACGUUGG discrete_label="0 (no)"
ordered_residues=GAGUAGCAAUAUUACGCACC discrete_label="1 (yes)"
ordered_residues=CAUCAGCAAUAUUACGGCUU discrete_label="1 (yes)"

Problem: Hello, I need to know if "UUUCAGCAAUAUUACGCUCU" has measured self-splicing fitness (ln) not below -2. Thanks!
Solution: 1 (yes)

Problem: Further, for "UCUGAGCAAUAUUACGACUG" ?
Solution: 0 (no)

Problem: Further, for "AACCAGCAAUAUUACGGUCU" ?
Solution: 1 (yes)

Problem: Further, for "CAGAAGCAAUAUUACGAGCA" ?
Solution: 1 (yes)

Problem: Further, for "UAAGAGCAAUAUUACGGAUG" ?
Solution: 0 (no)

Problem: Further, for "AGUAAGCAAUAUUACGACGG" ?
Solution: 1 (yes)

Problem: Further, for "GCCUAGCAAUAUUACGCAUC" ?
Solution: 1 (yes)

Problem: Further, for "UGGUAGCAAUAUUACGAAUU" ?
Solution: 0 (no)

Hello, the source for this data is the supplement of paper PMC7877785, in case you need it.
